B1: tRNA (parent)
chain: CUCUCGGUAGCCAAGUUGGUUUAAGGCGCAAGACUUUAAUUUAUCACUACGAAAUCUUGAGAUCGGGCGUUCGACUCGCCCCCGGGAGAUUUUUUCCUCGAGCAA

Variants of: B1
Assay: nonsense suppression (GFP-seq) (ratio to wild type); higher = more function; SUP4oc tRNA, yeast GFP reporter sort-seq
This sample holds only a part of the variants without activity.
nonsense suppression by entry:
measure: nonsense suppression

- mutations: "G28C C34A C68G A89U"
  measure: "nonsense suppression"
  inequalityOperator: "≤"
  testResult: 0.026
- mutations: "U4G A23U A24C A33U G67A G84C A87G G88C"
  measure: "nonsense suppression"
  inequalityOperator: "≤"
  testResult: 0.026
- mutations: "A9G U76A"
  measure: "nonsense suppression"
  inequalityOperator: "="
  testResult: 0.103
- mutations: "C68U U70C"
  measure: "nonsense suppression"
  inequalityOperator: "="
  testResult: 0.0321
- mutations: "A62U U63C"
  measure: "nonsense suppression"
  inequalityOperator: "≤"
  testResult: 0.026
- mutations: "U2A A30U"
  measure: "nonsense suppression"
  inequalityOperator: "="
  testResult: 0.031
- mutations: "A9G U17A"
  measure: "nonsense suppression"
  inequalityOperator: "="
  testResult: 0.92
- mutations: "C5G G61A"
  measure: "nonsense suppression"
  inequalityOperator: "≤"
  testResult: 0.026
- mutations: "U22G U55C G65C C80U"
  measure: "nonsense suppression"
  inequalityOperator: "≤"
  testResult: 0.026
- mutations: "G15U A23G G65C"
  measure: "nonsense suppression"
  inequalityOperator: "≤"
  testResult: 0.026
- mutations: "U8A A30G"
  measure: "nonsense suppression"
  inequalityOperator: "="
  testResult: 0.0404
- mutations: "A9U C12A A13C C72U C79A"
  measure: "nonsense suppression"
  inequalityOperator: "≤"
  testResult: 0.026
- mutations: "U4C C29A"
  measure: "nonsense suppression"
  inequalityOperator: "="
  testResult: 1.11
- mutations: "U16C U17G"
  measure: "nonsense suppression"
  inequalityOperator: "="
  testResult: 1.07
- mutations: "U16G U17C"
  measure: "nonsense suppression"
  inequalityOperator: "="
  testResult: 1.05
- mutations: "U76A C79G"
  measure: "nonsense suppression"
  inequalityOperator: "≤"
  testResult: 0.026
- mutations: "G78A C83A"
  measure: "nonsense suppression"
  inequalityOperator: "≤"
  testResult: 0.026
- mutations: "G15A A33G"
  measure: "nonsense suppression"
  inequalityOperator: "="
  testResult: 0.0395
- mutations: "A24C C75G"
  measure: "nonsense suppression"
  inequalityOperator: "="
  testResult: 1.11
- mutations: "G28U C79U"
  measure: "nonsense suppression"
  inequalityOperator: "≤"
  testResult: 0.026
- mutations: "U4C G78C"
  measure: "nonsense suppression"
  inequalityOperator: "="
  testResult: 1.06
- mutations: "A30G C75U"
  measure: "nonsense suppression"
  inequalityOperator: "="
  testResult: 1.19
